Give measured growth for each item. Keep answers brief.
System: SF-539 CNS
assay-text: NCI-60 one-dose screen, 48 h (100 = growth as untreated, 0 = no growth, -100 = all killed)
protocol-conditions: 10 µM unless noted
About 83,000 compounds went through this panel and 20% of them were active in at least one assay; those are over-represented in the sample as a whole.
Answers are plain numbers, in %.

Recorded results for 2 molecules are shown here.
{"molecule": "O=C1/C(=C/c2cccc3c2OCO3)Cc2c(F)cc(Br)cc21", "assayed-target": "SF-539 CNS", "value": 99.7}
{"molecule": "C=CCSc1nnc(-c2ccc(-c3nc4ccccc4[nH]3)cc2)o1", "assayed-target": "SF-539 CNS", "value": 82.2}

Provide the reported growth of each entry below, same order.
1. C#CCN(C)CCCOc1ccc(N(CC)C(=O)c2cc(C(C)C)c(O)cc2O)cc1Cl
2. COc1cc2cc(C(=O)N3C[C@@H](CCl)c4c3cc(OC(=O)N(C)CCSSCCN3CCOCC3)c3ccccc43)[nH]c2c(OC)c1OC
3. O=C(Nc1nc2ccccc2s1)Nc1ccccc1Cl
4. COc1cc(NC(=O)CSc2nnc(-c3ccc(-c4nc5ccc(Cl)cc5[nH]4)cc3)o2)cc(OC)c1OC

**Result**
6.42
-72
51
24.1

Provide the reported growth of each entry below, same order.
1. COc1ccc([C@H]2C(C(=O)c3ccc(Cl)cc3)C3(N[C@@H]2c2ccccc2)C(=O)Nc2ccccc23)cc1 (stereo partly drawn)
2. COc1cc(CNC(=O)[C@]23CCC(C)(C)CC2C2=CCC4[C@@]5(C)CCC(OC(C)=O)C(C)(C)C5CC[C@@]4(C)[C@]2(C)CC3)ccc1OCc1cn(-c2ccc(Cl)cc2Cl)nn1 (stereo partly drawn)

**Result**
1. 34.5
2. 101

---

Tested on: NCI-H322M lung
assay-text: NCI-60 one-dose screen, 48 h (100 = growth as untreated, 0 = no growth, -100 = all killed)
protocol-conditions: 10 µM unless noted
This is part of a sample that, as a whole, favours compounds with a hit. Of some 83,000 tested, about 20% had one in any assay.
endpoint-label: growth (%)
Give bare numbers, in %.

{"molecule": "CN(C)c1nc(NCCNS(=O)(=O)c2ccc(C3=Nc4c(N)nc(N)nc4NC(c4ccc(C(F)(F)F)cc4)C3)cc2)nc(N2CCOCC2)n1 (stereo not drawn)", "endpoint-label": "growth", "value": 84.2}

Provide the reported growth of each entry below, same order.
1. FC(F)(F)CN1CCN(CCn2c(C(F)(F)F)cc3c(Cl)ncnc32)CC1
2. c1n[nH]cc1-c1nc2ccc3[nH]ncc3c2c2c1CC1(CC2)COC1
3. COc1cccc2nc(Nc3cccc(NC(=O)c4ccc(CN5CCN(C)CC5)c(C(F)(F)F)c4)c3)ccc12

**Result**
1. -22.9
2. 64
3. -100

---

Test system: OVCAR-8 ovarian
assay-text: NCI-60 one-dose screen, 48 h (100 = growth as untreated, 0 = no growth, -100 = all killed)
protocol-conditions: 10 µM unless noted
Protocol: Growth inhibition of the OVCAR-8 human tumor cell line is measured as a screen for anti-cancer activity. Cells are grown in 96 well plates and exposed to the test compound for 48 hours. Compounds are tested at a single concentration, which is 10^-5 M for most compounds. The reported endpoint is percent growth (GI% or GIPRCNT), where numbers from 0 - 100% represent growth inhibition, and numbers from -100% - 0 represent cell death. For example, a value of 40 represents 60% growth inhibition. […]
The panel holds about 83,000 compounds, 20% with a hit somewhere; the sample as a whole holds those more often. Calls of active or inactive are those of the source. The calls were made as follows: active = growth percent below 10; inactive = the rest.
endpoint-label: growth

Recorded results for 3 compounds are shown here.
{"compound": "Cn1cc(-c2cc3nc(-c4c[nH]c5ccccc45)cc(N)n3n2)c2ccccc21", "growth": "-73.6% (active)"}
{"compound": "Cc1ccc(NC(=O)N/N=C/c2c[nH]c3ccccc23)c(C)c1", "growth": "-23.7% (active)"}
{"compound": "COC(=O)c1cc(C(C)=O)n2c3ccccc3c3ccccc3c12", "growth": "50.5% (inactive)"}

Provide the reported growth of each entry below, same order.
1. Cc1ccc(N=Nc2c(N)nn3c(-c4cc5cc(Br)ccc5oc4=O)ccnc23)cc1
2. Oc1ccc(Cl)c(Nc2ncnc3c2cnn3CC(Cl)c2ccc(Br)cc2)c1 (stereo not given)

**Result**
1. 54% (inactive)
2. 54.9% (inactive)

---

Test system: BT-549 breast
assay-text: NCI-60 one-dose screen, 48 h
protocol-conditions: 10 µM unless noted
This is part of a sample that, as a whole, favours compounds with a hit. Of some 83,000 tested, about 20% had one in any assay. Active and inactive are the calls of the source. How the source made its calls: active means growth percent below 10; inactive means the rest.
Parameter call: string, one of active, inactive

Below, 4 molecules whose answers are already recorded.
{"molecule": "CCN(C(=O)CN1C(=O)/C(=C/c2ccco2)SC1=S)C1CCS(=O)(=O)C1 (stereo not given)", "assayed-target": "BT-549 breast", "class-label": "inactive"}
{"molecule": "Cc1ccc(C(=O)Nc2cc(-n3ccnc3)cc(C(F)(F)F)c2)cc1-n1cc(-c2cnc3cccnn23)nn1", "assayed-target": "BT-549 breast", "class-label": "inactive"}
{"molecule": "C#CCN(C)CCCOc1ccc(N(CC)C(=O)c2cc(C(C)C)c(O)cc2O)cc1Cl", "assayed-target": "BT-549 breast", "class-label": "active"}
{"molecule": "COc1ccc2[nH]c(=O)c(CSc3ccccc3Nc3nccc(-c4ccc(Cl)cc4)n3)cc2c1", "assayed-target": "BT-549 breast", "class-label": "inactive"}

**Query** Status in this test for O=CNc1ccc(-n2cnc3cc(-c4ccc(O)cc4)ccc32)cc1 ?
**Result** inactive

---

Tested on: TK-10 renal
assay-text: NCI-60 one-dose screen, 48 h
protocol-conditions: 10 µM unless noted
This is part of a sample that, as a whole, favours compounds with a hit. Of some 83,000 tested, about 20% had one in any assay. Active and inactive are the calls of the source. Rule for the calls: active = growth percent below 10; inactive = the rest.
Parameter call: string, one of 1 (yes) = active, 0 (no) = inactive

Below, 5 molecules whose answers are already recorded.
{"molecule": "COc1ccc(-n2c(NC(=O)N3CCN(C)CC3)c(C#N)c3ccccc32)cc1", "class-label": "0 (no)"}
{"molecule": "Oc1ccc(Cl)c(Nc2ncnc3c2cnn3CC(Cl)c2ccc(Br)cc2)c1 (centres undefined)", "class-label": "0 (no)"}
{"molecule": "c1n[nH]cc1-c1nc2ccc3[nH]ncc3c2c2c1CC1(CCOCC1)CC2", "class-label": "0 (no)"}
{"molecule": "N#Cc1c(NC(=O)N2CCOCC2)n(-c2ccc(OC(F)(F)F)cc2)c2cc(F)ccc12", "class-label": "0 (no)"}
{"molecule": "C=CC[n+]1cccc2c3ccccc3ccc21", "class-label": "0 (no)"}

**Query** Status in this test for C[C@H]1[C@@H](CC(=O)N[C@@H](Cc2coc3ccccc23)B(O)O)O[C@@H]2OC3(C)CC[C@H]4[C@H](C)CC[C@@H]1[C@@]24O3 ?
**Result** 1 (yes)

**Query** Status in this test for Nc1nnc(-c2cncc(Br)c2)c(-c2c[nH]c3ccc(Cl)cc23)n1 ?
**Result** 0 (no)

---

Test system: NCI-H522 lung
assay-text: NCI-60 one-dose screen, 48 h (100 = growth as untreated, 0 = no growth, -100 = all killed)
protocol-conditions: 10 µM
Experimental: Growth inhibition of the NCI-H522 human Non-Small Cell Lung tumor cell line is measured as a screen for anti-cancer activity. Cells are grown in 96 well plates and exposed to the test compound for 48 hours. Compounds are tested at a single concentration, which is 10^-5 M for most compounds. The reported endpoint is percent growth (GI% or GIPRCNT), where numbers from 0 - 100% represent growth inhibition, and numbers from -100% - 0 represent cell death. […]
Compounds without any hit were thinned out: in the full panel of roughly 83,000, 20% have a hit. Active and inactive are the calls of the source. How the source made its calls: active means growth percent below 10; inactive means the rest.
Give measured growth for each item. Keep answers brief.

Recorded results for 2 compounds are shown here.
{"structure-string": "CC/C(=C(\\c1ccc(O)cc1)c1ccc(OCCN(C)C(=O)CCOCCNC(=O)c2ccc3c(c2)CN([C@@H]2CCC(=O)NC2=O)C3=O)cc1)c1ccccc1", "value": "95.3% (inactive)"}
{"structure-string": "CC/C(=C(\\c1ccc(O)cc1)c1ccc(OCCNC)cc1)c1ccccc1", "value": "93% (inactive)"}

Provide the reported growth of each entry below, same order.
1. CC/C(=C(/c1ccc(O)cc1)c1ccc(OCCN(C)C(=O)CCOCCNC(=O)Cc2ccc3c(c2)CN([C@@H]2CCC(=O)NC2=O)C3=O)cc1)c1ccccc1
2. CC/C(=C(/c1ccc(O)cc1)c1ccc(OCCN(C)C(=O)COCCOCCNC(=O)Cc2ccc3c(c2)CN([C@@H]2CCC(=O)NC2=O)C3=O)cc1)c1ccccc1
3. CC/C(=C(/c1ccc(O)cc1)c1ccc(OCCN(C)C(=O)COCCOCCNC(=O)c2ccc3c(c2)CN([C@@H]2CCC(=O)NC2=O)C3=O)cc1)c1ccccc1

**Result**
91.2% (inactive)
88.1% (inactive)
90% (inactive)
